Numbers sourced from the supplement of paper PMC7125110.

B1: glmS ribozyme (parent)
chain: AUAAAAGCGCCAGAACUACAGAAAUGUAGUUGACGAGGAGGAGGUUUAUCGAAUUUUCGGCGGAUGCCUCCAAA

- Variants of: B1
- procedure details: KM; higher = weaker cofactor use; RNA array
- experimental context: with glucosamine-6-phosphate
Record yes (1) whenever KM is at 2000 µM or higher; record no (0) when lower.

mutant	label
C67G C70U	no (0)
A15G A53C	no (0)
A6U G43U	yes (1)
A12C U45A A64U	yes (1)
G41A U47G	yes (1)
A12U U49G	yes (1)
G41C A42U	no (0)
A48U U55G	yes (1)
A39U C71U	no (0)
U47C C71U	no (0)
A42U C67A	no (0)
A39G G43U	no (0)
A15C A64G	yes (1)
A14G U54C	yes (1)
U45A A52G	yes (1)
A39C U46A	yes (1)
A15G A33C	yes (1)
A15U U45C	yes (1)
A6U C11G	no (0)
U45G C67A	yes (1)
A52G C70G	no (0)
C16A U47G	no (0)
U30C U47A	no (0)
G44A U55A	yes (1)
C8U G38A	no (0)
U30G C58A	yes (1)
G41C A42G	no (0)
A12G G13U	no (0)
C10U A33U U54C	yes (1)
U57A C58G	yes (1)
G44C A53C	yes (1)
G13U C16A	yes (1)
G41U C71A	no (0)
G13A	yes (1)
G43C C67G	yes (1)
G32U U56A	yes (1)
A15G	yes (1)
A39U U57C	yes (1)
A12G G66C	no (0)
U56A C67A	yes (1)
A42C G66A	no (0)
